Listing: pIC50 of selected sequences
test-target: HLA-A*02:01
measurement-description: IEDB peptide-MHC binding, cellular MHC/competitive/fluorescence; bounds were set here for any values at or beyond the usual limits of such assays
condition-parameters: source organism: Vaccinia virus WR
pIC50: −log10 of the molar value.
value-kind: pIC50

sequence_record=TIRVTSNGL qualifier_symbol== numeric_result=4.63
sequence_record=PTNDIPSLFI qualifier_symbol== numeric_result=4.74
sequence_record=LVSKHWELT qualifier_symbol=≤ numeric_result=4.15
sequence_record=KVIKLVKSLV qualifier_symbol== numeric_result=4.60
sequence_record=TVRSIITDA qualifier_symbol== numeric_result=4.99
sequence_record=DVKVLAARL qualifier_symbol== numeric_result=4.92
sequence_record=SVEKVGINLV qualifier_symbol== numeric_result=4.30
sequence_record=GTETKITFA qualifier_symbol== numeric_result=4.22
sequence_record=YIKDLKHAT qualifier_symbol== numeric_result=5.09
sequence_record=SADDIQAIM qualifier_symbol== numeric_result=4.92
sequence_record=HLATPINSRI qualifier_symbol== numeric_result=5.10
sequence_record=KINNNRIVAM qualifier_symbol== numeric_result=4.63
sequence_record=DTCGASINIT qualifier_symbol== numeric_result=4.37
sequence_record=DITNILGGVL qualifier_symbol== numeric_result=4.79
sequence_record=EILTVKRPLL qualifier_symbol=≤ numeric_result=4.15
sequence_record=QLKGFYMISL qualifier_symbol== numeric_result=5.05
sequence_record=LAIDFGNGA qualifier_symbol== numeric_result=4.33
sequence_record=VIFLISVIV qualifier_symbol== numeric_result=4.87
sequence_record=YTVMVKINPT qualifier_symbol== numeric_result=5.03
sequence_record=LVFNSISARA qualifier_symbol== numeric_result=4.80
sequence_record=EIPTRTLDT qualifier_symbol== numeric_result=5.22

----------
test-target: HLA-A*02:06
measurement-description: IEDB peptide-MHC binding, cellular MHC/competitive/fluorescence; bounds were set here for any values at or beyond the usual limits of such assays
condition-parameters: source organism: Vaccinia virus WR
With a cut-off of 10 µM, any IC50 strictly below it is called 1; any IC50 meeting it or above is called 0.

sequence_record=TTENAAYQVL label=0
sequence_record=DTIAHINTLI label=0
sequence_record=FTSYKRFVT label=0
sequence_record=NTITTFIPI label=1
sequence_record=QILDNAAKYV label=0
sequence_record=KAMHDKKIDI label=0
sequence_record=SANMDWRSLT label=0
sequence_record=KISVEKIKQT label=0
sequence_record=VTSPLTGNNT label=1
sequence_record=AAKTPVIVV label=0
sequence_record=LTPFEKEFT label=0
sequence_record=YTKHSMLTNA label=1
sequence_record=PTNDIPSLFI label=0
sequence_record=PLTLLIKTL label=1
sequence_record=DILQMREIIT label=0
sequence_record=SADNHPKMI label=0
sequence_record=TINALVYFST label=0
sequence_record=DLFMSHVKSV label=0
sequence_record=TLLNETAKVI label=1
sequence_record=LVSKHWELT label=0
sequence_record=DTIESAKTKI label=0
sequence_record=HIGHHYIWI label=0
sequence_record=AINKCVDIFT label=0
sequence_record=LLTHGADPNA label=0
sequence_record=RILSEKRKDT label=1
sequence_record=KLTKDRKML label=0
sequence_record=SQAKKPEVRI label=1
sequence_record=AIKSNNHLT label=0
sequence_record=VIRHVDGKI label=1
sequence_record=RTRLYDYFT label=0
sequence_record=DVNSVQFSI label=0
sequence_record=TAGNKVDVDI label=0
sequence_record=MLHNPTSET label=0
sequence_record=SVQLSNNKYV label=1
sequence_record=ITGNKVKTEL label=0
sequence_record=PLSINVSGV label=0
sequence_record=RVKQWVMDTL label=0
sequence_record=SVKYYGRST label=0
